Hello, the source for this data is the RNAGym collection of RNA variant scans (doi:10.1073/pnas.2313332121), in case you need it.

B1: TPR t1 (parent)
chain: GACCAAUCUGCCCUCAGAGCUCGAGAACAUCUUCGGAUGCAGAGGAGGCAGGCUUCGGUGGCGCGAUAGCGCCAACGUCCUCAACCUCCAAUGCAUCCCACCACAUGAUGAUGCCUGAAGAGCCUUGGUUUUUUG

# Variants of: B1
# ASSAY METHOD TEXT: polymerase ribozyme fitness, log enrichment relative to wild type (log ratio); higher = more active; in vitro selection for triplet polymerase activity
polymerase ribozyme fitness (log ratio) overview
Provide a numeric answer; units are not to be included.

Solved entries (count: 3):
1. C3U A16U G71A: -2.38
2. C8G G39C C62A: -0.386
3. G61A C82U C115A: 0.0919

State the recorded polymerase ribozyme fitness (log ratio) for this entry: U7C U9G A26G
-1.4

State the recorded polymerase ribozyme fitness (log ratio) for this entry: G61C
-1.63

State the recorded polymerase ribozyme fitness (log ratio) for this entry: C73A U81A A90G
-0.106

State the recorded polymerase ribozyme fitness (log ratio) for this entry: G52A G69C C85A G122A U133A
-4.36

State the recorded polymerase ribozyme fitness (log ratio) for this entry: G10C G57C G117C
-4.35

State the recorded polymerase ribozyme fitness (log ratio) for this entry: C11A C31U C40U G47C C62U G107A
-4.34

State the recorded polymerase ribozyme fitness (log ratio) for this entry: C8A C40A A43C U87G
-2.23

State the recorded polymerase ribozyme fitness (log ratio) for this entry: U54C C86G U112G G120C
-1.16

State the recorded polymerase ribozyme fitness (log ratio) for this entry: G23U A90U
-6.86

State the recorded polymerase ribozyme fitness (log ratio) for this entry: C28U G61A
-1.12

State the recorded polymerase ribozyme fitness (log ratio) for this entry: G25U C56U C123G
-6.4

State the recorded polymerase ribozyme fitness (log ratio) for this entry: C49A C82A G110A
-1.04

State the recorded polymerase ribozyme fitness (log ratio) for this entry: C82G C101U C115A U125A
-1.73

State the recorded polymerase ribozyme fitness (log ratio) for this entry: C31U G36U G60C C73U C123U
-4.81

State the recorded polymerase ribozyme fitness (log ratio) for this entry: G45C U109C
-4.66

State the recorded polymerase ribozyme fitness (log ratio) for this entry: G71C A84G C104A U109G G117U C124A U130G
-5.84

State the recorded polymerase ribozyme fitness (log ratio) for this entry: G36A C97U
-0.157
